All figures here come from ChEMBL document CHEMBL1142617.

# Test system: P388
# testMethodNotes: Cytotoxicity against mouse P388 cells
# Type: functional, cell-based
measurementKind: IC50 (µg/mL)

INSERT INTO results (molecule, targetortestsystem, val) VALUES
  ('C=C1C[C@](OC)([C@H](O)C(=O)NC[C@H]2O[C@H](CO)C(C)(C)[C@H](O)[C@H]2O)O[C@H](C)[C@@H]1C [MYCALAMIDE C]', 'P388', 0.095),
  ('C=C1C[C@](OC)([C@H](O)C(=O)N[C@H]2OCO[C@H]3[C@@H]2O[C@H](C[C@H](O)CO)C(C)(C)[C@@H]3O)O[C@H](C)[C@@H]1C [MYCALAMIDE D]', 'P388', 0.035),
  ('C=C1C[C@](OC)([C@H](O)C(=O)N[C@@H]2OCO[C@H]3[C@@H]2O[C@H](CO)C(C)(C)[C@@H]3OC)O[C@H](C)[C@@H]1C [THEOPEDERIN E]', 'P388', 0.0009),
  ('C=C1C[C@](OC)([C@H](O)C(=O)N[C@H]2OCO[C@H]3[C@@H]2O[C@H](C[C@H](O)CO)C(C)(C)[C@@H]3OC)O[C@H](C)[C@@H]1C [MYCALAMIDE A]', 'P388', 0.0011);
